System: Streptococcus pyogenes SSI-9
Experiment: Antibacterial activity assay of bead-derived peptides (three concentrations)
Type: cell-based
Parameters: key: +++: inhibition by the 640-fold diluted peptide solution; ++: inhibition by the 160-fold diluted solution; +: inhibition by the 40-fold diluted solution; -: no inhibition
Details: S. pyogenes, bead-derived peptide solution, three concentrations
Method: Each type of assay must be simplified and miniaturized to assess the activities of the library peptides in a 96-well format for the high-throughput screening. Next, the peptides in groups A and B were subjected to the antibacterial assay and structural determination. Three peptide concentrations were applied to evaluate the growth inhibition of S. pyogenes and determine the antibacterial activity. […] Finally, the structures of the peptides were determined. […]
Where a SMILES comes first, the peptide text is derived from it. [ ]: non-standard residue; d: D form. The star is where a group is joined. NHCH2CH2OH = OCCN*; For = O=C*
property: antibacterial activity

{"columns": ["compound", "system tested", "val"],
 "data": [
  ["CC(C)C[C@@H](NC(=O)[C@H](C)NC(=O)CNC(=O)[C@@H](NC=O)C(C)C)C(=O)N[C@@H](C)C(=O)N[C@H](CC(C)C)C(=O)N[C@H](C(=O)N[C@@H](C(=O)N[C@@H](Cc1c[nH]c2ccccc12)C(=O)N[C@H](CC(C)C)C(=O)N[C@@H](Cc1c[nH]c2ccccc12)C(=O)N[C@@H](C(=O)N[C@@H](Cc1c[nH]c2ccccc12)C(=O)N[C@H](CC(C)C)C(=O)N[C@@H](Cc1c[nH]c2ccccc12)C(=O)NCCO)C(C)C)C(C)C)C(C)C [compound 11305] (For-VGA[dL]A[dL]V[dV]W[dL]W[dV]W[dL]W-NHCH2CH2OH)", "Streptococcus pyogenes SSI-9", "+"],
  ["CC(C)C[C@@H](NC(=O)[C@H](C)NC(=O)CNC(=O)[C@@H](NC=O)C(C)C)C(=O)N[C@@H](C)C(=O)N[C@H](CC(C)C)C(=O)N[C@H](C(=O)N[C@H](CC(C)C)C(=O)N[C@@H](Cc1c[nH]c2ccccc12)C(=O)N[C@@H](C(=O)N[C@@H](Cc1c[nH]c2ccccc12)C(=O)N[C@H](CC(C)C)C(=O)N[C@@H](Cc1c[nH]c2ccccc12)C(=O)N[C@@H](C(=O)N[C@@H](Cc1c[nH]c2ccccc12)C(=O)NCCO)C(C)C)[C@H](C)O)C(C)C [compound 7480] (For-VGA[dL]A[dL]V[dL]W[dT]W[dL]W[dV]W-NHCH2CH2OH)", "Streptococcus pyogenes SSI-9", "-"],
  ["CC(C)C[C@@H](NC(=O)[C@H](C)NC(=O)CNC(=O)[C@@H](NC=O)C(C)C)C(=O)N[C@@H](C)C(=O)N[C@@H](C(=O)N[C@H](C(=O)N[C@H](CC(C)C)C(=O)N[C@@H](Cc1c[nH]c2ccccc12)C(=O)N[C@@H](C(=O)N[C@@H](Cc1c[nH]c2ccccc12)C(=O)N[C@H](CC(C)C)C(=O)N[C@@H](Cc1c[nH]c2ccccc12)C(=O)N[C@H](CC(C)C)C(=O)N[C@@H](Cc1c[nH]c2ccccc12)C(=O)NCCO)C(C)C)C(C)C)C(C)C [compound 8464] (For-VGA[dL]A[dV]V[dL]W[dV]W[dL]W[dL]W-NHCH2CH2OH)", "Streptococcus pyogenes SSI-9", "-"],
  ["CNC(=O)C[C@@H](NC(=O)[C@H](Cc1c[nH]c2ccccc12)NC(=O)[C@H](NC(=O)[C@H](Cc1c[nH]c2ccccc12)NC(=O)[C@H](NC(=O)[C@H](Cc1c[nH]c2ccccc12)NC(=O)[C@@H](CC(C)C)NC(=O)[C@@H](NC(=O)[C@@H](CC(C)C)NC(=O)[C@H](C)NC(=O)[C@@H](CC(C)C)NC(=O)[C@H](C)NC(=O)CNC(=O)[C@@H](NC=O)C(C)C)C(C)C)C(C)C)C(C)C)C(=O)N[C@@H](Cc1c[nH]c2ccccc12)C(=O)NCCO [compound 6265] (For-VGA[dL]A[dL]V[dL]W[dV]W[dV]W[dD](NHMe)W-NHCH2CH2OH)", "Streptococcus pyogenes SSI-9", "-"]
]}

Just for reference, paper PMC7531004 is where these values come from.
